B1: Twister Ribozyme (parent)
chain: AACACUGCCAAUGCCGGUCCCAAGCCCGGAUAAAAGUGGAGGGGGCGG

Variants of: B1
experiment-notes: self-cleavage, relative activity (ratio to wild type); higher = more cleavage; co-transcriptional
metric-name: self-cleavage
Answer as a number with no unit attached.

Observe how each entry below is paired with its result.
variant-string	self-cleavage
U18A A40U	0.147
C21G C27U	0.0651
C9U A23C	0.0976

The recorded self-cleavage for G28C U37A is 0.241

The recorded self-cleavage for G7C G42C is 0.0454

The recorded self-cleavage for C19G A30U is 0.456

The recorded self-cleavage for U31A G42U is 0.341

The recorded self-cleavage for A35G G45C is 0.373

The recorded self-cleavage for C15G G38A is 0.0635

The recorded self-cleavage for U31A A40C is 0.207
